These data points were gathered from paper PMC9911399.

Parameter: binding signal. Scope: all listed entries.
# SYSTEM TESTED: T1, RBFOX1 RRM RbFoxmut (Fox-RRM*) (Homo sapiens, UniProt Q9NWB1 109-208, R118D;E147R;N151S;E152T)
# T1 sequence: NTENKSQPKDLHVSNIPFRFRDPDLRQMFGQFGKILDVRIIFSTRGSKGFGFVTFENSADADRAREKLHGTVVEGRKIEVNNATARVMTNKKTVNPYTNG
# ASSAY INFO: EMSA; HiTS-Eq, 1 nM pool, 10 min; buffer printed only for the single-RNA assays: 10 mM Tris pH 7.5, 150 mM NaCl, 3.4 mM EDTA, 0.001% NP-40, 30 C
# SETUP CONDITIONS: tags: His6 N-terminal (pET28a); label: 5' 32P
The full ranking holds about 16,000 sequences; the median of “ka relative to ugcaugu” is about 0.096, and the highest 2% start at about 0.35. This excerpt belongs to a sample that is enriched for the highest values.

GAGAACG (DNA:RNA) RNA: GGGAGACCGGAAUUCAGAUUGUCCGAGAACGUUAAAUCCCGUCGUAGCCACCA DNA 1: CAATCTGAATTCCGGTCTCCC DNA 2: TGGTGGCTACGACGGGATT    0.347 KA relative to UGCAUGU
AUUUGCC (DNA:RNA) RNA: GGGAGACCGGAAUUCAGAUUGUCCAUUUGCCUUAAAUCCCGUCGUAGCCACCA DNA 1: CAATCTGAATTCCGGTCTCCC DNA 2: TGGTGGCTACGACGGGATT    0.257 KA relative to UGCAUGU
UUGCCUG (DNA:RNA) RNA: GGGAGACCGGAAUUCAGAUUGUCCUUGCCUGUUAAAUCCCGUCGUAGCCACCA DNA 1: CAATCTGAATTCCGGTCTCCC DNA 2: TGGTGGCTACGACGGGATT    0.377 KA relative to UGCAUGU
UGCUGCC (DNA:RNA) RNA: GGGAGACCGGAAUUCAGAUUGUCCUGCUGCCUUAAAUCCCGUCGUAGCCACCA DNA 1: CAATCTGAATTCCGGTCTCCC DNA 2: TGGTGGCTACGACGGGATT    0.298 KA relative to UGCAUGU
UGCCUCC (DNA:RNA) RNA: GGGAGACCGGAAUUCAGAUUGUCCUGCCUCCUUAAAUCCCGUCGUAGCCACCA DNA 1: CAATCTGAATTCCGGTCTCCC DNA 2: TGGTGGCTACGACGGGATT    0.155 KA relative to UGCAUGU

*Q* Quick check: binding signal of CUCAAAA (DNA:RNA) RNA: GGGAGACCGGAAUUCAGAUUGUCCCUCAAAAUUAAAUCCCGUCGUAGCCACCA DNA 1: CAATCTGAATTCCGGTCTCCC DNA 2: TGGTGGCTACGACGGGATT ?
*A* 0.0819 KA relative to UGCAUGU

*Q* Quick check: binding signal of AUAUCCC (DNA:RNA) RNA: GGGAGACCGGAAUUCAGAUUGUCCAUAUCCCUUAAAUCCCGUCGUAGCCACCA DNA 1: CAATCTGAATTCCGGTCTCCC DNA 2: TGGTGGCTACGACGGGATT ?
*A* 0.0954 KA relative to UGCAUGU
